Hey, just so you know, these numbers are from paper PMC3218208.

QUANTITY KIND: pKi
// field semantics: pKi = negative decimal log of concentration (mol/L)

input: Given O=C(O)CCC(=O)C(=O)O [αKG, α-ketoglutarate] , report its pKi on Enzyme I (EI, PtsI) (Escherichia coli).
output: 2.89
